Source: ChEMBL document CHEMBL5335767

# System: Burkholderia thailandensis
# experiment_summary: Antibacterial activity against Burkholderia thailandensis E264TS32C47 under muller hinton medium by CLSI protocol based microdilution method
# Type: functional
Provide the recorded MIC for the entries that follow.
Answers are plain numbers, in µg/mL.

Consider the worked cases shown below.
{"columns": ["molecule", "study_target", "measure", "uom", "reading"],
 "data": [
  ["CC(C)(O/N=C(\\C(=O)N[C@@H]1C(=O)N2C(C(=O)[O-])=C(C[n+]3ccccc3)CS[C@H]12)c1csc(N)n1)C(=O)O", "Burkholderia thailandensis", "MIC", "µg/mL", 4],
  ["O=C(O)c1cn(C2CC2)c2cc(N3CCN(C(=O)c4ccc(O)c(O)c4Cl)CC3)c(F)cc2c1=O", "Burkholderia thailandensis", "MIC", "µg/mL", 128],
  ["CC(OC(=O)c1cccc(O)c1O)OC(=O)N1CCN(c2cc3c(cc2F)c(=O)c(C(=O)O)cn3C2CC2)CC1 (configuration not stated)", "Burkholderia thailandensis", "MIC", "µg/mL", 32],
  ["CC(OC(=O)c1cc(=O)c(O)c[nH]1)OC(=O)N1CCN(c2cc3c(cc2F)c(=O)c(C(=O)O)cn3C2CC2)CC1 (configuration not stated)", "Burkholderia thailandensis", "MIC", "µg/mL", 8]
]}

Below: the item to evaluate.
[Q] Recorded MIC for O=C(O)c1cn(C2CC2)c2cc(N3CCN(C(=O)c4cccc(O)c4O)CC3)c(F)cc2c1=O with Burkholderia thailandensis, please?
[A] 16

###

# Tested on: Pseudomonas aeruginosa
# experiment_summary: Antibacterial activity against Pseudomonas aeruginosa AM85 under succinate minimum medium by CLSI protocol based microdilution method
# Type: functional
measure: MIC (µg/mL)
Give bare numbers, in µg/mL.

Some solved cases for reference:
{"columns": ["molecule", "measure", "uom", "reading"],
 "data": [
  ["CC(OC(=O)c1cc(=O)c(O)c[nH]1)OC(=O)N1CCN(c2cc3c(cc2F)c(=O)c(C(=O)O)cn3C2CC2)CC1 (configuration not stated)", "MIC", "µg/mL", 64],
  ["O=C(O)c1cn(C2CC2)c2cc(N3CCN(C(=O)c4ccc(O)c(O)c4)CC3)c(F)cc2c1=O", "MIC", "µg/mL", 128],
  ["O=C(O)c1cn(C2CC2)c2cc(N3CCN(C(=O)c4cccc(O)c4O)CC3)c(F)cc2c1=O", "MIC", "µg/mL", 128]
]}

Would you kindly look at the next entry?
[Q] What value of measured MIC is listed for CC(C)(O/N=C(\C(=O)N[C@@H]1C(=O)N2C(C(=O)[O-])=C(C[n+]3ccccc3)CS[C@H]12)c1csc(N)n1)C(=O)O [CEFTAZIDIME] ?
[A] 0.25

###

# Test system: Burkholderia pseudomallei
# experiment_summary: Antibacterial activity against Burkholderia pseudomallei K96243 under 1 uM FeCl3 medium by CLSI protocol based microdilution method
# Format: functional
Checkbox rule: MIC lower than 4 µg/mL = 1 (yes); MIC not lower than 4 µg/mL = 0 (no).

For orientation, consider the following solved cases.
{"columns": ["compound", "label_value"],
 "data": [
  ["CC(OC(=O)c1cc(=O)c(O)c[nH]1)OC(=O)N1CCN(c2cc3c(cc2F)c(=O)c(C(=O)O)cn3C2CC2)CC1 (configuration not stated)", "1 (yes)"],
  ["O=C(O)c1cn(C2CC2)c2cc(N3CCN(C(=O)c4cc(=O)c(O)c[nH]4)CC3)c(F)cc2c1=O", "0 (no)"],
  ["CC(C)(O/N=C(\\C(=O)N[C@@H]1C(=O)N2C(C(=O)[O-])=C(C[n+]3ccccc3)CS[C@H]12)c1csc(N)n1)C(=O)O", "0 (no)"],
  ["O=C(O)c1cn(C2CC2)c2cc(N3CCN(C(=O)c4ccc(O)c(O)c4Cl)CC3)c(F)cc2c1=O", "0 (no)"]
]}

Now examine the next entry.
[Q] Regarding O=C(O)c1cn(C2CC2)c2cc(N3CCN(C(=O)c4ccc(O)c(O)c4)CC3)c(F)cc2c1=O , kindly confirm whether its MIC is beneath 4 µg/mL.
[A] 0 (no)

###

# System: Pseudomonas aeruginosa
# experiment_summary: Antibacterial activity against Pseudomonas aeruginosa AM85 under 1 uM FeCl3 medium by CLSI protocol based microdilution method
# Type: functional
measure: MIC

Example cases with answers are listed next.
{"columns": ["molecule", "reading"],
 "data": [
  ["O=C(O)c1cn(C2CC2)c2cc(N3CCN(C(=O)c4ccc(O)c(O)c4Cl)CC3)c(F)cc2c1=O", "> 128 µg/mL"],
  ["CC(OC(=O)c1cc(=O)c(O)c[nH]1)OC(=O)N1CCN(c2cc3c(cc2F)c(=O)c(C(=O)O)cn3C2CC2)CC1 (stereo not drawn)", "64 µg/mL"]
]}

[Q] Looking for the measured MIC of O=C(O)c1cn(C2CC2)c2cc(N3CCN(C(=O)c4cccc(O)c4O)CC3)c(F)cc2c1=O , can you help?
[A] > 128 µg/mL

###

# Test system: Pseudomonas aeruginosa
# experiment_summary: Antibacterial activity against Pseudomonas aeruginosa AM85 under succinate minimum medium by CLSI protocol based microdilution method
# Format: functional
measure: MIC

{"columns": ["compound", "measure", "reading"],
 "data": [
  ["O=C(O)c1cn(C2CC2)c2cc(N3CCN(C(=O)c4ccc(O)c(O)c4Cl)CC3)c(F)cc2c1=O", "MIC", "> 128 µg/mL"]
]}

Give measured MIC for every item shown.
1. O=C(O)c1cn(C2CC2)c2cc(N3CCN(C(=O)c4cc(=O)c(O)c[nH]4)CC3)c(F)cc2c1=O
2. CC(OC(=O)c1cccc(O)c1O)OC(=O)N1CCN(c2cc3c(cc2F)c(=O)c(C(=O)O)cn3C2CC2)CC1 (stereo not drawn)

[A]
["> 128 µg/mL", "> 128 µg/mL"]
